FYI, the data here is from paper PMC12256496.

- test details: Human in vivo PK data: concentration-dose ratio (CDR) and toxicokinetic variability factor (TKVF);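 note: Literature-pooled human in vivo PK data, plasma, serum or cord blood concentrations per daily dose, weighted by study population size across non-pregnant, pregnant and fetal groups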
- condition description: female, human, in vivo
Some molecules, each annotated with its measured TKVF.
Please reply with the value in numeric form only.

Guide cases for TKVF, answers given:
>>> df
                                   molecule  parameter_measured  value_observed
0  CN(Cc1cnc2nc(N)nc(N)c2n1)c1ccc(C(=O)N[C@@H](CCC(=O)O)C(=O)O)cc1 [Methotrexate (MTX), Methotrexate]                TKVF            2.65
1     Cn1c(=O)c2c(ncn2C)n(C)c1=O [Caffeine]                TKVF            2.42

query: Entry O=C1CN(/N=C/c2ccc([N+](=O)[O-])o2)C(=O)N1 [Nitrofurantoin] needs its TKVF filled in; supply it.
result: 5.73
